# test: Quantitative High-Throughput drug screen in 47 multiple myeloma cell lines against the NCATS MIPE library collection: Karpas620_DSMZ cell viability assay (AID 1918959); note: nearly all actives have a fitted effect of over 30% in size
# condition summary: Karpas620 myeloma viability, CellTiter-Glo ATP luminescence, 48 h; series mostly up to 45.8 µM
Inconclusive results are not listed. Calls of active or inactive are those of the source. Calls come from the whole dose curve; as a rule, active = well fitted cell-killing curve with a large enough effect; inconclusive = small, poorly fitted or top-dose-only effect, or effect the other way; inactive = no such curve, though single readings can be large or run the other way.
Would you mind answering with one of these outcomes? active, inactive

Sample answers from the record:
1. C=CC(=O)Nc1cccc(Oc2nc(Nc3ccc(N4CCN(C)CC4)cc3)ncc2Cl)c1    active
2. COc1c(OCCCN2CCOCC2)ccc2c3n(c(=NC(=O)c4cnc(N)nc4)nc12)CCN3    active
3. CN1CCN(Cc2ccc(NC(=O)Nc3ccc(Oc4cc(NC(=O)C5CC5)ncn4)cc3)cc2C(F)(F)F)CC1    inactive
4. Cc1c(Cn2c(C)nc3c(C(=O)O)cc(N4CCOCC4)cc32)cccc1C(F)(F)F    inactive
5. CC(O)C1C(=O)N2C(C(=O)O)=C(SC3CNC(C(=O)N(C)C)C3)C(C)C12 (centres undefined)    inactive

In this assay, the call recorded for `Nc1ncnc2c1c(-c1cnc3[nH]ccc3c1)nn2C1CCCC1` was what? active

Quick one: `Nc1cc(C(F)(F)F)c(-c2cc(N3CCOCC3)nc(N3CCOCC3)n2)cn1` active

Param item: `O=C(NCCCNc1nc(Nc2cccc(NC(=O)N3CCCC3)c2)ncc1I)c1cccs1` inactive

Entry `C[C@H]1C[C@@H]2[C@@H]([C@@H](O)C[C@@]3(C)[C@H]2CC[C@]3(O)C(=O)CO)[C@@]2(C)C=CC(=O)C=C12` please inactive

----------
# test: Quantitative High-Throughput drug screen in 47 multiple myeloma cell lines against the NCATS MIPE library collection: KMS12PE_JCRB cell viability assay (AID 1918972); note: nearly all actives have a fitted effect of over 30% in size;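 for viability: 100% = DMSO only wells and 0% = wells with media alone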
# condition summary: KMS12PE myeloma viability, CellTiter-Glo ATP, 48 h; series mostly up to 45.8 µM
Inconclusive results are not listed. Calls of active or inactive are those of the source. Calls come from the whole dose curve; as a rule, active = well fitted cell-killing curve with a large enough effect; inconclusive = small, poorly fitted or top-dose-only effect, or effect the other way; inactive = no such curve, though single readings can be large or run the other way.
Response enum: active, inactive

Past entries and their recorded results:
1) CN(C)CCCN=c1c2ccccc2n(C)c2[nH]c(=O)n(C)c(=O)c12    active
2) Cn1c(=O)n(-c2ccc(C(C)(C)C#N)cc2)c2c3cc(-c4cnc5ccccc5c4)ccc3ncc21    active
3) Cc1c(C)n(Cc2ccc(-c3ccccc3C(=O)O)cc2)c2ccc(C(=O)N[C@@H](C)c3ccc([N+](=O)[O-])cc3)cc12    active
4) Cc1ccc(CN2CCNCC2)cc1NC(=O)CNc1ccc(F)c(F)c1    inactive
5) CCCCCCCCCC(=O)N[C@@H](Cc1c[nH]c2ccccc12)C(=O)N[C@H](CC(N)=O)C(=O)N[C@@H](CC(=O)O)C(=O)N[C@@H]1C(=O)NCC(=O)N[C@@H](CCCN)C(=O)N[C@@H](CC(=O)O)C(=O)N[C@H](C)C(=O)N[C@@H](CC(=O)O)C(=O)NCC(=O)N[C@H](CO)C(=O)N[C@@H]([C@@H](C)CC(=O)O)C(=O)N[C@@H](CC(=O)c2ccccc2N)C(=O)O[C@@H]1C    inactive
6) Cc1cccc(C=NNc2cc(N3CCOCC3)nc(OCCc3ccccn3)n2)c1    active
7) COc1cc2c(cc1-c1c(C)noc1C)ncc1[nH]c(=O)n([C@H](C)c3ccccn3)c12    active
8) COc1ccc(-c2cc3c(C)nc(N)nc3n(C3CCC(OCCO)CC3)c2=O)cn1 (configuration not stated)    active
9) CC(=O)c1c(C)c2cnc(Nc3ccc(N4CCNCC4)cn3)nc2n(C2CCCC2)c1=O    active
10) CN(C)c1nc(Cc2ccc(NC(=O)c3ccc4ccccc4c3)cc2)nc(Cl)c1CC(=O)O    active

Dear all, I need the recorded test outcome for `CC(C)c1cc(-c2n[nH]c(=O)n2-c2ccc3c(ccn3C)c2)c(O)cc1O` , thank you. active

Would you mind doing `COc1cc(C(=O)N2CCC(N3CCN(C)CC3)CC2)ccc1Nc1ncc2c(n1)N(C)c1ccccc1C(=O)N2C` as well? active

----------
# test: qHTS Screen of the MIPE 4.0 Collection Against Ewings Sarcoma (TC32) (AID 1259256); note: nearly all actives have a fitted effect of over 45% in size; note: potency is the fitted concentration of half-maximal effect
# condition summary: TC32 Ewing sarcoma viability, CellTiter-Glo, 48 h; series mostly up to 45.8 µM
Results filed as inconclusive are left out. The source made the active and inactive calls. Calls come from the whole dose curve; as a rule, active = well fitted inhibition curve with a large enough effect; inconclusive = small, poorly fitted or top-dose-only effect; inactive = no such curve, though single readings can be large or run the other way.
quantity name: Potency

Worked cases, answers included:
1) O=C(Nc1cc(C(F)(F)F)cc(C(F)(F)F)c1)c1cc(Cl)ccc1O    1.18 µM (active)
2) C=CC(=O)Nc1cc2c(Nc3ccc(F)c(Cl)c3)ncnc2cc1C#CC(C)(C)N1CCN(C)CC1    1.32 µM (active)
3) COc1ccc(OC)c(-c2nnc3ccc(-c4ccc(OC)c(O[C@@H]5CCOC5)c4)nn23)c1    16.6 µM (active)
4) CN(C)CC=CC(=O)Nc1cc2c(Nc3ccc(F)c(Cl)c3)ncnc2cc1O[C@H]1CCOC1    16.6 µM (active)
5) OCCCNc1cc(-c2ccnc(Nc3cccc(Cl)c3)n2)ccn1    0.166 µM (active)

I have this molecule here, COc1cc(-c2nn(C3CCC(N4CCN(C(C)=O)CC4)CC3)c3ncnc(N)c23)ccc1NC(=O)c1cc2ccccc2n1C (stereo not drawn) , and I need its recorded Potency. 3.72 µM (active)

Next molecule up: `COCCOc1ccc2c(c1)ncn2-c1ccc2cccc(N3CCC(N)CC3)c2n1` 23.5 µM (active)

Another molecule to check: `C[C@]1(CO)CN(c2cc(C(=O)Nc3ccc4c(c3)-c3c(c(C(N)=O)nn3-c3ccc(F)cc3)CC4)c(Cl)cn2)C[C@@]1(C)CO` 13.2 µM (active)

Field entry: `CCc1c2c(nc3ccc(O)cc13)-c1cc3c(c(=O)n1C2)COC(=O)[C@]3(O)CC` inactive

Please do the same for `CNC(=O)c1ccccc1Nc1nc(Nc2ccc(N3CCOCC3)cc2OC)ncc1Cl` as well. 0.662 µM (active)

Another molecule: `Nc1ccc(S(=O)(=O)Nc2ncccn2)cc1` inactive

Can you check `CN(c1ncccc1CNc1nc(Nc2ccc3c(c2)CC(=O)N3)ncc1C(F)(F)F)S(C)(=O)=O` next? 10.5 µM (active)

----------
# test: Quantitative High-Throughput drug screen in 47 multiple myeloma cell lines against the NCATS MIPE library collection: KMM1_JCRB cell viability assay (AID 1918960); note: nearly all actives have a fitted effect of over 30% in size
# condition summary: KMM1 myeloma viability, CellTiter-Glo ATP luminescence, 48 h; series mostly up to 45.8 µM
Inconclusive results are not listed. The source made the active and inactive calls. Calls come from the whole dose curve; as a rule, active = well fitted cell-killing curve with a large enough effect; inconclusive = small, poorly fitted or top-dose-only effect, or effect the other way; inactive = no such curve, though single readings can be large or run the other way.
Field 'call' accepts yes (1) = active, no (0) = inactive

Worked set:
1. COc1c(OCCCN2CCOCC2)ccc2c3n(c(=NC(=O)c4cnc(N)nc4)nc12)CCN3    yes (1)
2. CCCCCN(CCC12CC3CC(CC(C3)C1)C2)C(=O)NCCCc1ccncc1    no (0)
3. Clc1cccc(-c2nnnn2Cc2cccnc2)c1Cl    no (0)
4. C[C@@H](Oc1cc(-c2cnn(C3CCNCC3)c2)cnc1N)c1c(Cl)ccc(F)c1Cl    yes (1)

Moving on to the next compound.
What did this assay record as the result for CN1c2cc(O)c(N=NC(N)=O)cc2CC1S(=O)(=O)O (stereo not given) ? no (0)

----------
# Test system: CRL-7250
# test: Cytotoxic Profiling of Annotated Libraries Using Quantitative High-Throughput Screening (AID 1296008); note: nearly all actives have a fitted effect of over 60% in size
# condition summary: Five cell lines viability, CellTiter-Glo ATP luminescence, 48-72 h
# Method: Cell-based phenotypic screening is a commonly used approach to discover biological pathways, novel drug targets, chemical probes and high-quality hit-to-lead molecules. […] A pintool (Kalypsys) was used to transfer 23 nL of compound solution to the 1536-well assay plates. […] Plates were left at room temperature for 10 min before imaging the ATP-coupled luminescence using a ViewLux microplate imager (PerkinElmer, Waltham, MA).
Inconclusive results are not listed. Calls of active or inactive are those of the source. Calls follow the shape of the dose curve; as a rule, active = well fitted inhibition curve with a large enough effect; inconclusive = small, poorly fitted or top-dose-only effect; inactive = flat fitted curve, though single readings scatter.
Hi there, use one of these labels in your reply, thanks! active, inactive

1) O=C(C=Cc1cccc(S(=O)(=O)Nc2ccccc2)c1)NO    active
2) Cn1c2ccccc2c2c3c(c4c5ccccc5n(CCC#N)c4c21)CNC3=O    active
3) CCOc1cc2ncc(C#N)c(Nc3ccc(F)c(Cl)c3)c2cc1NC(=O)C=CCN(C)C    active
4) COc1c(OCCCN2CCOCC2)ccc2c3n(c(=NC(=O)c4cnc(N)nc4)nc12)CCN3    active

What did this assay record as the result for `Clc1ccc2ncc(-c3cccc(NC4CNC4)n3)n2c1` ? inactive

Queued: `COc1cc2c(Oc3ccc4[nH]c(C)cc4c3F)ncnc2cc1OCCCN1CCCC1` active

What about this compound? `CC1(C)OC2=C(C(=O)c3ccccc3C2=O)[C@H](NCc2ccccc2)[C@H]1O` active

----------
Below: a set of entries, each annotated with reported Potency.
# test: qHTS Assay for Identifying Gametocytocidal Compounds (AID 743244); note: potency is the fitted concentration of half-maximal effect
# condition summary: P. falciparum 3D7 stage III-V gametocytes, alamarBlue, 72 h
Records with an inconclusive call do not appear. Calls of active or inactive are those of the source. Calls come from the whole dose curve; as a rule, active = well fitted curve in the direction sought with a large enough effect; inconclusive = small, poorly fitted or top-dose-only effect, or another doubt; inactive = no such curve, though single readings can be large or run the other way.

1. CC(C)CC(=O)Nc1n[nH]c2c1CN(C(=O)C1CCN(C)CC1)C2(C)C    18.7 µM (active)
2. Cc1[nH]c2ccccc2c1CCNCc1ccc(C=CC(=O)NO)cc1    1.18 µM (active)
3. Cc1cc(Nc2cc(N3CCN(C)CC3)nc(Sc3ccc(NC(=O)C4CC4)cc3)n2)n[nH]1    23.5 µM (active)
4. CC1=C(CO)C(=O)O[C@@H]([C@@H](C)[C@H]2CC[C@H]3[C@@H]4C[C@H]5O[C@]56[C@@H](O)C=CC(=O)[C@]6(C)[C@@H]4CC[C@]23C)C1    0.372 µM (active)

Please look up its Potency: `CCN1CCN(CC(=O)Nc2ccc(-c3cccc4c(=O)cc(N5CCOCC5)oc34)c3sc4ccccc4c23)CC1` 29.6 µM (active)
